All figures here come from patent US9670189B2.

Consider the following pIC50 values measured on human PDE4B1 (Homo sapiens, UniProt Q07343).
Sequence (Q07343 whole entry): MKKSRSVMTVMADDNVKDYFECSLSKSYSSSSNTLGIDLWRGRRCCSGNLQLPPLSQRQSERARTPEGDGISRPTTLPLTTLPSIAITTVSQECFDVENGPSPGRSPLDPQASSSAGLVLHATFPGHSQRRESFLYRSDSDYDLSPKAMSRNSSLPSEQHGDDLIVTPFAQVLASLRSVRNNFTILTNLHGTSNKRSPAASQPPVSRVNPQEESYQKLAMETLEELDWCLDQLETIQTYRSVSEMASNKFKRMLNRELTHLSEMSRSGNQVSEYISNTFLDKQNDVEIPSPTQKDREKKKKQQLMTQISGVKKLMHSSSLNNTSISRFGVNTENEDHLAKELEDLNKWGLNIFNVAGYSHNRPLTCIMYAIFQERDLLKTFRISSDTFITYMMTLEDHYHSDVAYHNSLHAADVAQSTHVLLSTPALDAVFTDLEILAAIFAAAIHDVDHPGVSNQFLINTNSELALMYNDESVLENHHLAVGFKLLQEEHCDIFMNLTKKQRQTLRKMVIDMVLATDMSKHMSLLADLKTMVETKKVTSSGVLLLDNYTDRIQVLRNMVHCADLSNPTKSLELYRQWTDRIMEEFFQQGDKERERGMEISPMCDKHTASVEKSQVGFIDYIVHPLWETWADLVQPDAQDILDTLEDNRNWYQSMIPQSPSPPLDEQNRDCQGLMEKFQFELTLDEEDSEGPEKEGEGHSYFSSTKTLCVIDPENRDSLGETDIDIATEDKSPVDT
pIC50: −log10 of the molar value.
endpoint: pIC50

INSERT INTO assay_data (compound, system_under_test, observed) VALUES
  ('O=C(O)Cc1ccc(Oc2nc(-c3ccc(Cl)s3)nc3c2CCC3)cc1 [Compound 7]', 'human PDE4B1 (Homo sapiens, UniProt Q07343)', '> 7.00'),
  ('O=C(O)Cc1ccc(Oc2nc(-c3ccc(Cl)s3)nc3c2CS(=O)(=O)C3)cc1 [Compound 21]', 'human PDE4B1 (Homo sapiens, UniProt Q07343)', '> 7.00'),
  ('O=C(O)Cc1ccc(Oc2nc(-c3ccc(Cl)s3)nc3c2C[S+]([O-])C3)cc1 (stereo not drawn) [Compound 20]', 'human PDE4B1 (Homo sapiens, UniProt Q07343)', '> 7.00');

====

Biological target: human PDE4B1 (Homo sapiens)
Construct: host or cells: Sf9 cells
Test: cAMP HTRF assay to determine the activity of hPDE4B1
Type: biochemical
Conditions: 1 μM test concentration; human recombinant PDE4B1, cAMP 40 nM; read-out: Inhibition at 1 μM test concentration [%] (Percentage inhibition of PDE4B)
endpoint: inhibition at 1 µM (%)

INSERT INTO assay_data (compound, system_under_test, observed) VALUES
  ('O=C(O)Cc1ccc(Cc2nc(-c3ccc(Cl)s3)nc3c2CCC3)cc1 [Compound 9]', 'human PDE4B1 (Homo sapiens)', 75),
  ('CSc1ccc(-c2nc3c(c(Oc4ccc(CC(=O)O)cc4)n2)CCC3)s1 [Compound 51]', 'human PDE4B1 (Homo sapiens)', 84),
  ('COc1ccc(-c2nc3c(c(Oc4ccc(CC(=O)O)cc4)n2)CS(=O)(=O)C3)cc1F [Compound 16]', 'human PDE4B1 (Homo sapiens)', 89),
  ('COc1ccc(-c2nc3c(c(Oc4ccc(CC(=O)O)cc4)n2)CCC3)cc1Br [Compound 14]', 'human PDE4B1 (Homo sapiens)', 68),
  ('COc1ccc(-c2nc3c(c(Oc4ccc(CC(=O)O)cc4)n2)CCC3)cc1F [Compound 1]', 'human PDE4B1 (Homo sapiens)', 74),
  ('COc1ccc(-c2nc3c(c(Oc4ccc(CC(=O)O)cc4)n2)CCC3)cc1Cl [Compound 2]', 'human PDE4B1 (Homo sapiens)', 75),
  ('O=C(O)Cc1ccc(Oc2nc(-c3ccc(Br)cc3)nc3c2CCC3)cc1 [Compound 53]', 'human PDE4B1 (Homo sapiens)', 51),
  ('Cc1sc(-c2nc3c(c(Oc4ccc(CC(=O)O)cc4)n2)CCC3)cc1Br [Compound 50]', 'human PDE4B1 (Homo sapiens)', 47);
